Test system: Mycosphaerella graminicola; Anamorph: Septoria tritici; Bayer Code SEPTTR
Test details: Leaf blotch of wheat, foliar fungicide treatment, one day protectant (1DP) or three day curative (3DC)
Format: in vivo, Septoria tritici on wheat plants (variety Yuma)
Assay context: Zymoseptoria tritici, 24 h, one day protectant (1DP), 100 ppm, rating of percent disease control, read-out: SEPTTR 1DP 100 ppm
Value type: pest or weed control at 100 ppm

Query string: Need pest or weed control at 100 ppm of CCC(C)/C(C)=N/Nc1nc(OCc2ccc(C)cc2)ncc1F (stereo not drawn) , thanks.
Result string: 51 to 75%

Query string: Need pest or weed control at 100 ppm of `Nc1nc(OCCCc2ccncc2)ncc1F` , thanks.
Result string: 26 to 50%

Query string: Need pest or weed control at 100 ppm of `CONc1nc(OCc2ccc(F)cc2)ncc1F` , thanks.
Result string: 76 to 100%

Query string: Need pest or weed control at 100 ppm of `Nc1nc(OCc2ccnc(Cl)c2)ncc1F` , thanks.
Result string: 76 to 100%

Query string: Need pest or weed control at 100 ppm of `Nc1cccc(COc2ncc(F)c(N)n2)c1` , thanks.
Result string: 76 to 100%

Query string: Need pest or weed control at 100 ppm of `Cc1ccc(COc2ncc(F)c(NO)n2)cc1` , thanks.
Result string: 76 to 100%

###

Test system: Mycosphaerella graminicola; Anamorph: Septoria tritici; Bayer Code SEPTTR
Test details: Leaf blotch of wheat, foliar fungicide treatment, one day protectant (1DP) or three day curative (3DC)
Format: in vivo, Septoria tritici on wheat plants (variety Yuma)
Assay context: Zymoseptoria tritici, 24 h, one day protectant (1DP), 100 ppm, rating of percent disease control, read-out: SEPTTR 1DP 100 ppm
Value type: pest or weed control at 100 ppm

[[record]]
compound = "COc1c(F)cc(F)cc1COc1ncc(F)c(N)n1"
measured_value = "76 to 100%"

[[record]]
compound = "Nc1nc(OCc2cnc(Cl)s2)ncc1F"
measured_value = "76 to 100%"

[[record]]
compound = "Cn1nc(-c2ccccc2)nc1-c1ccccc1COc1ncc(F)c(N)n1"
measured_value = "0 to 25%"

[[record]]
compound = "Cc1ccc(COc2ncc(F)c(NC(=O)Cc3ccccc3)n2)cc1"
measured_value = "76 to 100%"


Query string: // fetch Mycosphaerella graminicola; Anamorph: Septoria tritici; Bayer Code SEPTTR pest or weed control at 100 ppm for `Nc1nc(OCc2ccc(F)c(F)c2)ncc1F`
Result string: 76 to 100%

Query string: // fetch Mycosphaerella graminicola; Anamorph: Septoria tritici; Bayer Code SEPTTR pest or weed control at 100 ppm for O=C1OC(Nc2nc(OCc3ccc(F)cc3)ncc2F)c2ccccc21 (stereo not shown)
Result string: 76 to 100%

Query string: // fetch Mycosphaerella graminicola; Anamorph: Septoria tritici; Bayer Code SEPTTR pest or weed control at 100 ppm for `Fc1cnc(OCc2ccccc2)nc1NNc1ccccn1`
Result string: 0 to 25%

Query string: // fetch Mycosphaerella graminicola; Anamorph: Septoria tritici; Bayer Code SEPTTR pest or weed control at 100 ppm for `COc1ccccc1COc1ncc(F)c(NSc2ccccc2[N+](=O)[O-])n1`
Result string: 76 to 100%

Query string: // fetch Mycosphaerella graminicola; Anamorph: Septoria tritici; Bayer Code SEPTTR pest or weed control at 100 ppm for `N#CNc1nc(OCc2ccc(F)cc2)ncc1F`
Result string: 0 to 25%

Query string: // fetch Mycosphaerella graminicola; Anamorph: Septoria tritici; Bayer Code SEPTTR pest or weed control at 100 ppm for `CN(O)c1nc(OCc2ccc(F)cc2)ncc1F`
Result string: 76 to 100%

###

Readings of pest or weed control at 25 ppm for the listed compounds
Test system: Mycosphaerella graminicola; Anamorph: Septoria tritici; Bayer Code SEPTTR
Test details: Leaf blotch of wheat, foliar fungicide treatment, one day protectant (1DP) or three day curative (3DC)
Format: in vivo, Septoria tritici on wheat plants (variety Yuma)
Assay context: Zymoseptoria tritici, 24 h, one day protectant (1DP), 25 ppm, rating of percent disease control, read-out: SETTTR 1DP 25 ppm

[[record]]
compound = "CCOc1ccc(COc2ncc(F)c(N)n2)cc1"
measured_value = "76 to 100%"

[[record]]
compound = "Fc1ccccc1NC(=S)Nc1nc(OCc2ccccc2)ncc1F"
measured_value = "76 to 100%"

[[record]]
compound = "ON(c1nc(OCc2ccc(F)cc2)ncc1F)C1CCCCC1"
measured_value = "0 to 25%"


Query string: Need pest or weed control at 25 ppm of `Nc1nc(OCc2ccc(F)c(Cl)c2)ncc1F` , thanks.
Result string: 76 to 100%

###

Readings of pest or weed control at 25 ppm for the listed compounds
Test system: Mycosphaerella graminicola; Anamorph: Septoria tritici; Bayer Code SEPTTR
Test details: Leaf blotch of wheat, foliar fungicide treatment, one day protectant (1DP) or three day curative (3DC)
Format: in vivo, Septoria tritici on wheat plants (variety Yuma)
Assay context: Zymoseptoria tritici, 24 h, one day protectant (1DP), 25 ppm, rating of percent disease control, read-out: SETTTR 1DP 25 ppm

Here's what some known entries look like.
[[record]]
compound = "Nc1nc(OCc2cccnc2)ncc1F"
value_type = "pest or weed control at 25 ppm"
measured_value = "76 to 100%"

[[record]]
compound = "COc1cccc(COc2ncc(F)c(NC(=O)Cc3ccccc3)n2)c1"
value_type = "pest or weed control at 25 ppm"
measured_value = "26 to 50%"

[[record]]
compound = "Cc1ccc(C(=O)Oc2ncc(F)c(/N=C/N(C)C)n2)c(C)c1"
value_type = "pest or weed control at 25 ppm"
measured_value = "76 to 100%"

[[record]]
compound = "CN(C)/C=N/c1nc(OS(=O)(=O)c2ccc(Cl)cc2)ncc1F"
value_type = "pest or weed control at 25 ppm"
measured_value = "76 to 100%"


Query string: Need pest or weed control at 25 ppm of `Nc1nc(OCc2ccccc2N2CCOCC2)ncc1F` , thanks.
Result string: 76 to 100%

Query string: Need pest or weed control at 25 ppm of CC1CC1COc1ncc(F)c(N)n1 (stereo not shown) , thanks.
Result string: 0 to 25%

Query string: Need pest or weed control at 25 ppm of `CC(C)C(=O)NNc1nc(OCc2ccc(F)cc2)ncc1F` , thanks.
Result string: 0 to 25%

Query string: Need pest or weed control at 25 ppm of `Cc1ccc(COc2ncc(F)c(/N=C3\CCCCN3C)n2)cc1` , thanks.
Result string: 76 to 100%

Query string: Need pest or weed control at 25 ppm of `Fc1cnc(OCc2ccccc2)nc1NCOCc1ccccc1` , thanks.
Result string: 0 to 25%

Query string: Need pest or weed control at 25 ppm of `CN(C)CCOc1ncc(F)c(N)n1` , thanks.
Result string: 0 to 25%

###

Test system: Mycosphaerella graminicola; Anamorph: Septoria tritici; Bayer Code SEPTTR
Test details: Leaf blotch of wheat, foliar fungicide treatment, one day protectant (1DP) or three day curative (3DC)
Format: in vivo, Septoria tritici on wheat plants (variety Yuma)
Assay context: Zymoseptoria tritici, 24 h, one day protectant (1DP), 25 ppm, rating of percent disease control, read-out: SETTTR 1DP 25 ppm
Value type: pest or weed control at 25 ppm

Here's what some known entries look like.
[[record]]
molecule = "NN(c1nc(OCc2ccc(F)cc2)ncc1F)C1CCCCC1"
measured_value = "0 to 25%"

[[record]]
molecule = "Cn1ccc2cc(COc3ncc(F)c(N)n3)ccc21"
measured_value = "51 to 75%"

[[record]]
molecule = "Nc1nc(OCCc2ccccc2Cl)ncc1F"
measured_value = "0 to 25%"

[[record]]
molecule = "COc1ccc(COc2ncc(F)c(NC(=O)NCc3ccccc3F)n2)cc1F"
measured_value = "0 to 25%"

[[record]]
molecule = "Cc1ccc(COc2ncc(F)c(/N=C/N3CCOCC3)n2)cc1"
measured_value = "76 to 100%"


Query string: Need pest or weed control at 25 ppm of `O=C(Nc1nc(OCc2ccccc2)ncc1F)c1ccccc1` , thanks.
Result string: 76 to 100%

Query string: Need pest or weed control at 25 ppm of `Nc1nc(OCc2cccc3ccsc23)ncc1F` , thanks.
Result string: 76 to 100%

Query string: Need pest or weed control at 25 ppm of `CCOc1ccccc1COc1ncc(F)c(N)n1` , thanks.
Result string: 76 to 100%

Query string: Need pest or weed control at 25 ppm of `Nc1nc(OCc2cc(Cl)cc(Cl)c2)ncc1F` , thanks.
Result string: 76 to 100%

Query string: Need pest or weed control at 25 ppm of `COc1ccc(COc2ncc(F)c(NCc3ccccc3F)n2)cc1` , thanks.
Result string: 26 to 50%

###

Test system: Mycosphaerella graminicola; Anamorph: Septoria tritici; Bayer Code SEPTTR
Test details: Leaf blotch of wheat, foliar fungicide treatment, one day protectant (1DP) or three day curative (3DC)
Assay type: in vivo, Septoria tritici on wheat plants (variety Yuma)
Assay context: Zymoseptoria tritici, 72 h, three day curative, 25 ppm, rating of percent disease control, read-out: SEPTTR 3DC 25 ppm
Value type: pest or weed control at 25 ppm

Here's what some known entries look like.
[[record]]
compound = "COc1cccc(COc2ncc(F)c(N3CCOCC3)n2)c1"
value_type = "pest or weed control at 25 ppm"
measured_value = "0 to 25%"

[[record]]
compound = "CC[Si](CC)(CC)Nc1nc(OCc2ccc(C)cc2)ncc1F"
value_type = "pest or weed control at 25 ppm"
measured_value = "76 to 100%"


Query string: Need pest or weed control at 25 ppm of `Nc1nc(OCCNc2ccccc2)ncc1F` , thanks.
Result string: 76 to 100%

Query string: Need pest or weed control at 25 ppm of CC(=O)Nc1nc(OC(C)c2ccc(F)cc2)ncc1F (stereo not drawn) , thanks.
Result string: 76 to 100%

Query string: Need pest or weed control at 25 ppm of `CC#CCOc1ncc(F)c(NCO)n1` , thanks.
Result string: 76 to 100%

Query string: Need pest or weed control at 25 ppm of `N#Cc1cccc(COc2ncc(F)c(NC(=O)OCc3ccccc3)n2)c1` , thanks.
Result string: 76 to 100%

Query string: Need pest or weed control at 25 ppm of `COc1ccccc1COc1ncc(F)c(NCO)n1` , thanks.
Result string: 76 to 100%

Query string: Need pest or weed control at 25 ppm of `CNc1nc(OCc2ccc(OC)c(OC)c2)ncc1F` , thanks.
Result string: 0 to 25%

Data origin: patent US9204653B2
